Tested On: CYP1A2 (Homo sapiens)
Method: Inhibition of CYP1A2 in HBV-infected human HepaRG cells at 10 mM using luciferin-1A2 as substrate treated for 1 hr on day 5 post-infection followed by removal of media and supplemented with fresh media and further incubated for 3 days then followed by treatment for 1 hr on day 8 post-infection followed by removal of media and supplemented with fresh media and further incubated for 3 days in presence of 50 uM SKF-525A and measured on day 11 post-infection by P450-Glo chemiluminescent assay relative to control
Type: ADME, tissue-based
Details: probe luciferin-1A2, with SKF-525A 50 uM
Observation Type: inhibition at 1 h, 10000 µM (%)
Form entry: value (%) — number only.

Give the reported inhibition at 1 h, 10000 µM for Nn1nnc2ccccc21 (system: CYP1A2 (Homo sapiens)). 88.8

====

Method: Half life in human primary hepatocytes at 1 uM measured up to 3 hrs under CYP450 restriction in presence of CYP450 inhibitiors ABT and SKF-525A by LC-MS/MS analysis
Assay type: ADME, cell-based, Hepatocyte
Observation Type: half-life at 1 µM (h)
Please respond with the number in h and leave the unit unwritten.

Compound: COC(=O)C1=C(C)NC(c2ncc(F)cc2F)=N[C@H]1c1ccc(F)cc1Cl
half-life at 1 µM [h]: 7.18

Next compound, half-life at 1 µM to be filled in.
# get_value(readout='half-life at 1 µM', item= O=C(Nc1ccc(F)cc1)c1ccc(CF)c(S(=O)(=O)N2CCOCC(O)C2)c1 (centres undefined) ) 2.65

====

Method: Cytotoxicity against human HepaRG cells assessed as effect on cell viability
Type: cell-based
Observation Type: CC50

Compound: COc1ccccc1/C(Br)=C(\NC(=O)c1ccc([N+](=O)[O-])cc1)C(=O)N1CCCCC1
Result: > 30 µM

Could you now look at the following compound, please?
Bench note: what CC50 did O=C(Nc1ccc(F)cc1)c1ccc(CF)c(S(=O)(=O)N2CCOCC(O)C2)c1 (configuration not stated) show? > 30 µM

====

Tested on: Hepatitis B virus
Method: Antiviral activity against Hepatitis B virus infected in human HepaRG cells assessed as inhibition of […] measured on day 11 post-infection by chemiluminescence immunostaining assay
Assay type: functional, organism-based
Details: 264 h
List of pEC50 values.
The scale used: pEC50 is minus the common logarithm of the concentration in molar units.

Here's what some known entries look like.
Compound: O=C(Nc1ccc(F)cc1)c1ccc(CF)c(S(=O)(=O)N2CCOCC(O)C2)c1 (centres undefined)
Tested On: Hepatitis B virus
Result: 5.68

Compound: CCOC(=O)C1=C(CN2CCOCC2)NC(c2nccs2)=NC1c1ccc(F)cc1Br (centres undefined)
Tested On: Hepatitis B virus
Result: 6.23

Compound: COc1ccccc1/C(Br)=C(\NC(=O)c1ccc([N+](=O)[O-])cc1)C(=O)N1CCCCC1
Tested On: Hepatitis B virus
Result: 5.24

Looking for the measured pEC50 of COC(=O)C1=C(C)NC(c2ncc(F)cc2F)=N[C@H]1c1ccc(F)cc1Cl , can you help? 6.66

====

Tested On: CYP2C9 (Homo sapiens, UniProt P11712)
Sequence (P11712 whole entry): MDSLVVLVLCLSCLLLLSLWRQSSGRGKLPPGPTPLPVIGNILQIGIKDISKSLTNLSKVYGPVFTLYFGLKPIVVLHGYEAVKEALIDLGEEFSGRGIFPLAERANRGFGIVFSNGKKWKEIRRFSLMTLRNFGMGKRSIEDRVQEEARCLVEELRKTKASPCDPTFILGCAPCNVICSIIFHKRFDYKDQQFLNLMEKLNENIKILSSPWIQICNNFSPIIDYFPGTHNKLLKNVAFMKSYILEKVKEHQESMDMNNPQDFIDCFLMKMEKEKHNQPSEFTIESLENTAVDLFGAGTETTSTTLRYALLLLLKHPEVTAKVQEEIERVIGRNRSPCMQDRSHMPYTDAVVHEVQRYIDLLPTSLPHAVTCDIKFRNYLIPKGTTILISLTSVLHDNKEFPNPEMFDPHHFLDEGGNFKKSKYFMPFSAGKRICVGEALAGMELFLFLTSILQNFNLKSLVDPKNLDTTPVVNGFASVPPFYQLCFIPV
Method: Inhibition of CYP2C9 in HBV-infected human HepaRG cells at 10 mM using luciferin-H as substrate treated for 1 hr on day 5 post-infection followed by removal of media and supplemented with fresh media and further incubated for 3 days then followed by treatment for 1 hr on day 8 post-infection followed by removal of media and supplemented with fresh media and further incubated for 3 days and measured on day 11 post-infection by P450-Glo chemiluminescent assay relative to control
Format: ADME, tissue-based
Details: probe luciferin-H
Observation Type: inhibition at 1 h, 10000 µM (%)
Give the value, in units of %, as a plain number.

Given the compound Nn1nnc2ccccc21 , what is its reported inhibition at 1 h, 10000 µM? 67.5

====

Tested On: CYP3A4 (Homo sapiens, UniProt P08684)
Sequence (P08684 whole entry): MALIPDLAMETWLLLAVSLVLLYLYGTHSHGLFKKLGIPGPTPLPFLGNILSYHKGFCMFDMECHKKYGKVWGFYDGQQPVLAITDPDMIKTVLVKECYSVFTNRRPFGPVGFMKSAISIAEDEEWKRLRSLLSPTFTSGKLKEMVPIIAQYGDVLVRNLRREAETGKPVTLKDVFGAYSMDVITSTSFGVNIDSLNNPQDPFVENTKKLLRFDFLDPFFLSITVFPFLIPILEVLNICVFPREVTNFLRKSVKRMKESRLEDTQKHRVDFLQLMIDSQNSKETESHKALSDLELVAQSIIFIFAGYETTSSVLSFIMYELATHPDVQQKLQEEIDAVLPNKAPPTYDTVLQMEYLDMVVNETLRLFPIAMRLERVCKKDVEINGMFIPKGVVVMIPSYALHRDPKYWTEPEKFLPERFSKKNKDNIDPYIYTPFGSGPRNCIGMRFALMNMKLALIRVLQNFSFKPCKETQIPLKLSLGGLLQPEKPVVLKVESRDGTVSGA
Method: Inhibition of CYP3A4 in HBV-infected human HepaRG cells at 10 mM using luciferin-IPA as substrate treated for 1 hr on day 5 post-infection followed by removal of media and supplemented with fresh media and further incubated for 3 days by P450-Glo chemiluminescent assay relative to control
Format: ADME, tissue-based
Details: probe luciferin-IPA
Observation Type: inhibition at 1 h, 10000 µM
Form entry: enter the amount, then its unit.

I am curious: what inhibition at 1 h, 10000 µM value has been reported for Nn1nnc2ccccc21 ? 9.6%

====

Tested On: CYP1A2 (Homo sapiens, UniProt P05177)
Method: Inhibition of CYP1A2 in HBV-infected human HepaRG cells at 10 mM using luciferin-1A2 as substrate treated for 1 hr on day 5 post-infection followed by removal of media and supplemented with fresh media and further incubated for 3 days by P450-Glo chemiluminescent assay relative to control
Type: ADME, tissue-based
Details: probe luciferin-1A2
Observation Type: inhibition at 1 h, 10000 µM (%)
// units = %; emit number, no label

# query: inhibition at 1 h, 10000 µM | item Nn1nnc2ccccc21 | system: CYP1A2 (Homo sapiens, UniProt P05177) 37.1

====

Tested On: CYP3A4 (Homo sapiens, UniProt P08684)
Method: Inhibition of CYP3A4 in HBV-infected human HepaRG cells at 50 uM using luciferin-IPA as substrate treated for 1 hr on day 5 post-infection followed by removal of media and supplemented with fresh media and further incubated for 3 days then followed by treatment for 1 hr on day 8 post-infection followed by removal of media and supplemented with fresh media and further incubated for 3 days in presence of 10 mM ABT and measured on day 11 post-infection by P450-Glo chemiluminescent assay relative to control
Type: ADME, tissue-based
Details: probe luciferin-IPA, with ABT 10 mM
Observation Type: inhibition at 1 h, 50 µM (%)
Report the value in % with no unit label.

# query: inhibition at 1 h, 50 µM | item CCCC(C(=O)OCCN(CC)CC)(c1ccccc1)c1ccccc1 | system: CYP3A4 (Homo sapiens, UniProt P08684) 90.3

====

Tested On: CYP3A4 (Homo sapiens)
Method: Inhibition of CYP3A4 in HBV-infected human HepaRG cells at 10 mM using luciferin-IPA as substrate treated for 1 hr on day 5 post-infection followed by removal of media and supplemented with fresh media and further incubated for 3 days in presence of 50 uM SKF-525A by P450-Glo chemiluminescent assay relative to control
Assay type: ADME, tissue-based
Details: probe luciferin-IPA, with SKF-525A 50 uM
Observation Type: inhibition at 1 h, 10000 µM (%)
Give the number; % is assumed, so skip it.

Request the reported inhibition at 1 h, 10000 µM associated with Nn1nnc2ccccc21 83.3

====

Tested On: CYP1A2 (Homo sapiens, UniProt P05177)
Method: Inhibition of CYP1A2 in HBV-infected human HepaRG cells at 50 uM using luciferin-1A2 as substrate treated for 1 hr on day 5 post-infection followed by removal of media and supplemented with fresh media and further incubated for 3 days by P450-Glo chemiluminescent assay relative to control
Type: ADME, tissue-based
Details: probe luciferin-1A2
Observation Type: inhibition at 1 h, 50 µM (%)
Answer with a number only, understood to be in %.

Under CYP1A2 (Homo sapiens, UniProt P05177): inhibition at 1 h, 50 µM value of CCCC(C(=O)OCCN(CC)CC)(c1ccccc1)c1ccccc1 [PROADIFEN] ? 2.2

====

Tested On: CYP3A4 (Homo sapiens, UniProt P08684)
Method: Inhibition of CYP3A4 in HBV-infected human HepaRG cells at 50 uM using luciferin-IPA as substrate treated for 1 hr on day 5 post-infection followed by removal of media and supplemented with fresh media and further incubated for 3 days by P450-Glo chemiluminescent assay relative to control
Assay type: ADME, tissue-based
Details: probe luciferin-IPA
Observation Type: inhibition at 1 h, 50 µM
Please append the unit to your numeric answer.

Record request: inhibition at 1 h, 50 µM value, item CCCC(C(=O)OCCN(CC)CC)(c1ccccc1)c1ccccc1 80.3%

====

Tested On: CYP1A2 (Homo sapiens, UniProt P05177)
Sequence (P05177 whole entry): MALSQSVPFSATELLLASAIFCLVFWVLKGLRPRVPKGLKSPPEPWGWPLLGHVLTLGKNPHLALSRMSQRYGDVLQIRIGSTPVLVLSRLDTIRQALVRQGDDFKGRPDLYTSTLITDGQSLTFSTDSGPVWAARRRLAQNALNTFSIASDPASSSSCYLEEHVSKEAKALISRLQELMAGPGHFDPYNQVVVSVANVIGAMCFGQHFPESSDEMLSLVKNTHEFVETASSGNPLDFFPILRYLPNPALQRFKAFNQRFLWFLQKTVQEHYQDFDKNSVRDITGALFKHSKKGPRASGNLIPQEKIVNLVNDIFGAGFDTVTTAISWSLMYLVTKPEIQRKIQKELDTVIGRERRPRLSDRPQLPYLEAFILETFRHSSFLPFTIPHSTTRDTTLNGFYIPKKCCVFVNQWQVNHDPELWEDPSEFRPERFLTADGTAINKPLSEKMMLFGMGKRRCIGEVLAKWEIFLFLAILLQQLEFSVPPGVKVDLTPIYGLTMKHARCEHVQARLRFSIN
Method: Inhibition of CYP1A2 in HBV-infected human HepaRG cells at 50 uM using luciferin-1A2 as substrate treated for 1 hr on day 5 post-infection followed by removal of media and supplemented with fresh media and further incubated for 3 days then followed by treatment for 1 hr on day 8 post-infection followed by removal of media and supplemented with fresh media and further incubated for 3 days in presence of 10 mM ABT and measured on day 11 post-infection by P450-Glo chemiluminescent assay relative to control
Assay type: ADME, tissue-based
Details: probe luciferin-1A2, with ABT 10 mM
Observation Type: inhibition at 1 h, 50 µM (%)
Report the figure in % without appending any unit label.

Would you kindly share the measured inhibition at 1 h, 50 µM for CCCC(C(=O)OCCN(CC)CC)(c1ccccc1)c1ccccc1 [PROADIFEN] ? 88.8
